# Test system: SK-MEL-5 melanoma
# protocolDescription: NCI-60 one-dose screen, 48 h (100 = growth as untreated, 0 = no growth, -100 = all killed)
# details: 10 µM unless noted
The panel holds about 83,000 compounds, 20% with a hit somewhere; the sample as a whole holds those more often.
reportedProperty: growth (%)

[
  {
    "compound": "CC(c1ccccn1)C(C)(O)C(C)c1ccccn1 (configuration not stated)",
    "measured": 105
  },
  {
    "compound": "O=C(/C=C/c1cccnc1)NCCCCC1CCCN(C(=O)c2ccccc2)C1 (configuration not stated)",
    "measured": 61.7
  },
  {
    "compound": "CC(C)(C)c1cc(O)c(O)c(C(C)(C)C)c1",
    "measured": 70.4
  },
  {
    "compound": "COc1cc(/C=C/C(=O)c2ccc(F)cc2)ccc1OCCCCCOc1cc2c(cc1OC)C(=O)N1CCCC1C=N2 (configuration not stated)",
    "measured": -78.1
  },
  {
    "compound": "O=Cc1c[nH]c2ccc(NC(=O)OCc3ccccc3)cc12",
    "measured": 99.1
  },
  {
    "compound": "Cc1ccccc1NC(=O)c1cc2ccccc2cc1O",
    "measured": 17.8
  },
  {
    "compound": "S=c1[nH]nc2sc3ccccc3n12",
    "measured": 106
  },
  {
    "compound": "CCCCCCCCCCSc1ncnc2nc[nH]c12",
    "measured": 56.4
  },
  {
    "compound": "O=NC1CC=CCC1c1ccccc1 (configuration not stated)",
    "measured": 108
  },
  {
    "compound": "C/C(=N\\N1CC(=O)NC1=O)c1ccc([N+](=O)[O-])o1",
    "measured": 93.4
  },
  {
    "compound": "Cc1cc(NC(=O)Nc2cc(Cl)ccc2C)no1",
    "measured": 102
  },
  {
    "compound": "Cc1nn(-c2ccc(Br)cc2)c2nc3c(nc12)C(=O)C(=O)c1ccccc1-3",
    "measured": 89.6
  }
]

Entry source: PubChem BioAssay (NCI)
